assay.system: HRgpA-6H (Porphyromonas gingivalis) (UniProt P28784)
assay.remarks: SPR Biacore 8K, 25 C; table lists HRgpA-6H as ligand, antibody as analyte
measured.parameter: pKd
Please note pKd is a logarithmic value: minus log10 of concentration in mol/L. Answer with that number alone.

Q) Record request: pKd value, item H14 (antibody, V domains shown) VH: QVQLQESGPGLVKPSETLSLTCTVSGFSLSIYSVHWIRQPPGKGLEWLGMIWGGGSSDYNSALKSRLTISKDTSKNQVSLKLSSVTAADTAMYYCARNGNFYAMDYWGQGTLVTVSS VL: EIVLTQSPGTLSLSPGERATLSCTASSSVSSSFLHWYQQKPGQAPQLWIYSTSNLASGIPDRFSGSGSGTDYTLTISRLEPEDFAVYYCHQYHHSPYIYTFGGGTKLEIK
A) 9.03
